Target: Mitogen-activated protein kinase kinase kinase 5 (Homo sapiens) (UniProt Q99683)
Sequence (whole entry): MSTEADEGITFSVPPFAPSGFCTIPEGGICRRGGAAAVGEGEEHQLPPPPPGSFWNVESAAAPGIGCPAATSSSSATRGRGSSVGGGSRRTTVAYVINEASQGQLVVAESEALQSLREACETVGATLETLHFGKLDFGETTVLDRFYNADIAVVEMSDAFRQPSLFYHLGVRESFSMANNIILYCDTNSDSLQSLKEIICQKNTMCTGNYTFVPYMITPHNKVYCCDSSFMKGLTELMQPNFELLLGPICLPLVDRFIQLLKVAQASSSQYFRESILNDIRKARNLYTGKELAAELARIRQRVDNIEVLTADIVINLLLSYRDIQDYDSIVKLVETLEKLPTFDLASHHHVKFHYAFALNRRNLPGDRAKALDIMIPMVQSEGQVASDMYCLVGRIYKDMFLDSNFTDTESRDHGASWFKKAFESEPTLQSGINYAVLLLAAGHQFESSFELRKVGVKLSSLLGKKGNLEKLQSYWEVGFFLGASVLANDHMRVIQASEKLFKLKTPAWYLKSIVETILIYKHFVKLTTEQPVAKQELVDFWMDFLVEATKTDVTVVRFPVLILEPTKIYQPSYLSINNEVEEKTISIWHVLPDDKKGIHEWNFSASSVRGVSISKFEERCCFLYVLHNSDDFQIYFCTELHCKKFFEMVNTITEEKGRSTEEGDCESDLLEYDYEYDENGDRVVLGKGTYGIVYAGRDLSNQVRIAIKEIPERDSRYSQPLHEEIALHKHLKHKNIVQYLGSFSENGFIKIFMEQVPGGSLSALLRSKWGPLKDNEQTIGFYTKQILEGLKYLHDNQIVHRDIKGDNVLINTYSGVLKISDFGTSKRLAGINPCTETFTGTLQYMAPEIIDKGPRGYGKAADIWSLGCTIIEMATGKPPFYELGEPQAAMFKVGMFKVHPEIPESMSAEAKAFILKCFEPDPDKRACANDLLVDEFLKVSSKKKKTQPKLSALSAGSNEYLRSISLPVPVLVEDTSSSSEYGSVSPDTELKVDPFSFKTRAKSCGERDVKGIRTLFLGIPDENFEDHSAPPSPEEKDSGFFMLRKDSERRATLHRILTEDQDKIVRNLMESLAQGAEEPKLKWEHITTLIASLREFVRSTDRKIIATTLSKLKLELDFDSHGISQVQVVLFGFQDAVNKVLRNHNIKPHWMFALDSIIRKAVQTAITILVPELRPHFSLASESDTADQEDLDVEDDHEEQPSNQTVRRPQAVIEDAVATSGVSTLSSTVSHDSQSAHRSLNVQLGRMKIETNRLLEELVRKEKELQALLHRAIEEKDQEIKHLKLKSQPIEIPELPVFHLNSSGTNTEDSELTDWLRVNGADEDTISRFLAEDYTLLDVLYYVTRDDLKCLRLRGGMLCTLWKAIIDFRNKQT
Please respond with met when measured ΔTm is strictly beneath -0.2 °C, and with not met in all other cases.

# check: ΔTm < -0.2 °C for CCCNC(=O)Nc1ccc(Oc2ncnc3cc(OC)c(OC)cc23)cc1Cl not met

# check: ΔTm < -0.2 °C for O=C1NC(=O)c2c1c1c3ccccc3[nH]c1n1cncc21 [ISOGRANULATIMIDE] not met

# check: ΔTm < -0.2 °C for C/C(O)=C(\C#N)C(=O)Nc1cc(Br)ccc1Br met

# check: ΔTm < -0.2 °C for Oc1cccc(-c2nc(N3CCOCC3)c3oc4ncccc4c3n2)c1 met

# check: ΔTm < -0.2 °C for Nc1nc(Nc2ccc(S(N)(=O)=O)cc2)nn1C(=S)Nc1c(F)cccc1F not met

# check: ΔTm < -0.2 °C for NC1=NC(=O)/C(=C2\CCNC(=O)c3[nH]c(Br)cc32)N1 not met

# check: ΔTm < -0.2 °C for NC(=O)c1ccc(-c2nc(-c3ccc4c(c3)OCCO4)c(-c3ccccn3)[nH]2)cc1 not met

# check: ΔTm < -0.2 °C for O=c1c2ccccc2[nH]c(=S)n1CCN1CCC(=C(c2ccc(F)cc2)c2ccc(F)cc2)CC1 met

# check: ΔTm < -0.2 °C for NC(=O)c1ccc2[nH]c(-c3ccc(Oc4ccc(Cl)cc4)cc3)nc2c1 not met

# check: ΔTm < -0.2 °C for CN(C)C[C@@H]1CCn2cc(c3ccccc32)C2=C(C(=O)NC2=O)c2cn(c3ccccc23)CCO1 not met

# check: ΔTm < -0.2 °C for CCN1/C(=C/C(C)=O)Sc2ccc(OC)cc21 not met

# check: ΔTm < -0.2 °C for Clc1ccc(Nc2nnc(Cc3ccncc3)c3ccccc23)cc1 not met

# check: ΔTm < -0.2 °C for O=c1cc(N2CCOCC2)oc2c1ccc1ccccc12 not met

# check: ΔTm < -0.2 °C for Cc1nc2sccn2c(=O)c1CCN1CCC(=C(c2ccccc2)c2ccc(F)cc2)CC1 not met

# check: ΔTm < -0.2 °C for Cc1ccc(NC(=O)c2cccc(N(C)C)c2)cc1NC(=O)c1ccc(O)cc1 met
